Reference source: the supplement of paper PMC3545927

# studySystem: furin, P09958;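 further: purified furin at 1:10 enzyme:substrate in 50 mM HEPES pH 7.5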
# Sequence (P09958 whole entry): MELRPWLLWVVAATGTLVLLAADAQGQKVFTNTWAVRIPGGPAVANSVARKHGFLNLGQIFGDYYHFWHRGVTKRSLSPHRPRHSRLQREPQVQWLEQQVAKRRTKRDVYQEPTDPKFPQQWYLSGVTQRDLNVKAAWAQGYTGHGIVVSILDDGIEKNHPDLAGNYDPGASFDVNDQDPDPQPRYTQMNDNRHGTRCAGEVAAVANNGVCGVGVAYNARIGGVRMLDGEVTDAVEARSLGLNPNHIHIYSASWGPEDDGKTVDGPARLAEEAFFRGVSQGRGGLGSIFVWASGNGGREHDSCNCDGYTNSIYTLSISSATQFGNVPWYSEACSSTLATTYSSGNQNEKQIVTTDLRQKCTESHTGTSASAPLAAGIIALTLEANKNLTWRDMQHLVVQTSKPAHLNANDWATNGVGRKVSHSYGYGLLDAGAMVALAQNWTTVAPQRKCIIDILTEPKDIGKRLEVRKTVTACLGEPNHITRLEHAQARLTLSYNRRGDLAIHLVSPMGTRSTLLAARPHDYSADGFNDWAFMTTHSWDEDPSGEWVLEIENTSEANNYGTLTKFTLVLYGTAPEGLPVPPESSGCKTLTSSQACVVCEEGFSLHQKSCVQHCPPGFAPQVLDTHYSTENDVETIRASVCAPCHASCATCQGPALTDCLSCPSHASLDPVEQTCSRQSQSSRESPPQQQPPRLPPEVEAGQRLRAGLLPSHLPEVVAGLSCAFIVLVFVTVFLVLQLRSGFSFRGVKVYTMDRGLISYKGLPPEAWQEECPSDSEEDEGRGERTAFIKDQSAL
# assayProtocol: furin cleavage Z-score vs untreated control; higher = more cleavage, active = 3.5 or more, inactive = 1 or less, 8 variable residues between constant flanks
# conditionParameters: 7.5 min
Some of the results follow. The true hit rate is not given.
Attribute: furin cleavage Z-score

macromoleculeSequence: CAAMTPTVATAGNASASA [HC281]
furin cleavage Z-score: 0.668 (inactive)
--
macromoleculeSequence: CASKRRARRQAGNASASA [FS-1487]
furin cleavage Z-score: 7.99 (active)
--
macromoleculeSequence: CATPCTCGSSAGNASASA [HC721]
furin cleavage Z-score: -1.49 (inactive)
--
macromoleculeSequence: CARVKKSPPEAGNASASA [FS-2196]
furin cleavage Z-score: 3.38
--
macromoleculeSequence: CARKKRQLYSAGNASASA [FS-2967]
furin cleavage Z-score: 7.88 (active)
--
macromoleculeSequence: CAFEMEECSQAGNASASA [HC1787]
furin cleavage Z-score: -0.0244 (inactive)
--
macromoleculeSequence: CARKKRLKESAGNASASA [FS-2343]
furin cleavage Z-score: 0.749 (inactive)
